Tested on: red blood cells (5% RBC suspension)
methodNotes: Test Example 2-1: in vitro hemolytic activity test (upper limit 50, 80, 100 or 200 μmol/L)
Format: cell-based
runConditions: hemolysis method 80 (upper concentration 80 μmol/L); 5% RBC suspension, 37° C., one hour; read-out: hemolysis IC50
pIC50: −log10 of the molar value.
metricName: pIC50

C[C@@H]1[C@H](O)[C@@H](C)/C=C/C=C/C=C/C=C/C=C/C=C/C=C/[C@H](O[C@@H]2O[C@H](C)[C@@H](O)[C@H](N)[C@@H]2O)C[C@@H]2O[C@](O)(C[C@@H](O)C[C@@H](O)[C@H](O)CC[C@@H](O)C[C@@H](O)CC(=O)O[C@H]1C)C[C@H](O)[C@H]2NC(=O)N1CCN(c2ccccc2)CC1 : < 4.10
C[C@@H]1[C@H](O)[C@@H](C)/C=C/C=C/C=C/C=C/C=C/C=C/C=C/[C@H](O[C@@H]2O[C@H](C)[C@@H](O)[C@H](N)[C@@H]2O)C[C@@H]2O[C@](O)(C[C@@H](O)C[C@@H](O)[C@H](O)CC[C@@H](O)C[C@@H](O)CC(=O)O[C@H]1C)C[C@H](O)[C@H]2NC(=O)N1CCC(N(C)C)C1 (single isomer, unassigned) [I-50] : < 4.10

API: the following record is the query input.
Please look up its pIC50: `C[C@@H]1[C@H](O)[C@@H](C)/C=C/C=C/C=C/C=C/C=C/C=C/C=C/[C@H](O[C@@H]2O[C@H](C)[C@@H](O)[C@H](N)[C@@H]2O)C[C@@H]2O[C@](O)(C[C@@H](O)C[C@@H](O)[C@H](O)CC[C@@H](O)C[C@@H](O)CC(=O)O[C@H]1C)C[C@H](O)[C@H]2NC(=O)N1CCOCCOCCOCCOCCOCC1`
< 4.10

###

Documented MIC across a set of compounds
System: C. albicans ATCC90028
methodNotes: Antifungal activity test, MIC by broth microdilution (CLSI M27-A3)
Type: cell-based
runConditions: C. albicans ATCC90028; broth microdilution, 35° C., 24-48 hours, 100% inhibition
Quick reminder: number only, in µg/mL, skip the unit.

C[C@@H]1[C@H](O)[C@@H](C)/C=C/C=C/C=C/C=C/C=C/C=C/C=C/[C@H](O[C@@H]2O[C@H](C)[C@@H](O)[C@H](N)[C@@H]2O)C[C@@H]2O[C@](O)(C[C@@H](O)C[C@@H](O)[C@H](O)CC[C@@H](O)C[C@@H](O)CC(=O)O[C@H]1C)C[C@H](O)[C@H]2NC(=O)NCC1(CO)COC1 : 0.25
C[C@@H]1[C@H](O)[C@@H](C)/C=C/C=C/C=C/C=C/C=C/C=C/C=C/[C@H](O[C@@H]2O[C@H](C)[C@@H](O)[C@H](N)[C@@H]2O)C[C@@H]2O[C@](O)(C[C@@H](O)C[C@@H](O)[C@H](O)CC[C@@H](O)C[C@@H](O)CC(=O)O[C@H]1C)C[C@H](O)[C@H]2NC(=O)NC[C@H](O)C(=O)O : 0.5

API: the following record is the query input.
Please look up its MIC: `C[C@@H]1[C@H](O)[C@@H](C)/C=C/C=C/C=C/C=C/C=C/C=C/C=C/[C@H](O[C@@H]2O[C@H](C)[C@@H](O)[C@H](N)[C@@H]2O)C[C@@H]2O[C@](O)(C[C@@H](O)C[C@@H](O)[C@H](O)CC[C@@H](O)C[C@@H](O)CC(=O)O[C@H]1C)C[C@H](O)[C@H]2NC(=O)NNC(=O)C(CO)CO`
0.5

###

Tested on: C. albicans ATCC90028
methodNotes: Antifungal activity test, MIC by broth microdilution (CLSI M27-A3)
Format: cell-based
runConditions: C. albicans ATCC90028; lowest concentration giving 100% inhibition; 35° C., 24-48 hours
Documented MIC across a set of molecules
Quick reminder: number only, in µg/mL, skip the unit.

The cases that follow already have their MIC on record.
C[C@@H]1[C@H](O)[C@@H](C)/C=C/C=C/C=C/C=C/C=C/C=C/C=C/[C@H](O[C@@H]2O[C@H](C)[C@@H](O)[C@H](NC(=O)CN(C)C)[C@@H]2O)C[C@@H]2O[C@](O)(C[C@@H](O)C[C@@H](O)[C@H](O)CC[C@@H](O)C[C@@H](O)CC(=O)O[C@H]1C)C[C@H](O)[C@H]2NC(=O)NNC(N)=O [I-326] : 0.25
CONC(=O)N[C@H]1[C@@H]2C[C@@H](O[C@@H]3O[C@H](C)[C@@H](O)[C@H](NC(=N)N)[C@@H]3O)/C=C/C=C/C=C/C=C/C=C/C=C/C=C/[C@H](C)[C@@H](O)[C@@H](C)[C@H](C)OC(=O)C[C@H](O)C[C@H](O)CC[C@@H](O)[C@H](O)C[C@H](O)C[C@](O)(C[C@@H]1O)O2 [I-331] : 0.25
C[C@@H]1[C@H](O)[C@@H](C)/C=C/C=C/C=C/C=C/C=C/C=C/C=C/[C@H](O[C@@H]2O[C@H](C)[C@@H](O)[C@H](NC(=N)N)[C@@H]2O)C[C@@H]2O[C@](O)(C[C@@H](O)C[C@@H](O)[C@H](O)CC[C@@H](O)C[C@@H](O)CC(=O)O[C@H]1C)C[C@H](O)[C@H]2NC(=O)NNC(N)=O [I-330] : 0.25

Please look up its MIC: C[C@@H]1[C@H](O)[C@@H](C)/C=C/C=C/C=C/C=C/C=C/C=C/C=C/[C@H](O[C@@H]2O[C@H](C)[C@@H](O)[C@H](NC(=O)CN(C)C)[C@@H]2O)C[C@@H]2O[C@](O)(C[C@@H](O)C[C@@H](O)[C@H](O)CC[C@@H](O)C[C@@H](O)CC(=O)O[C@H]1C)C[C@H](O)[C@H]2NC(=O)NCCC(N)=O [I-344]
0.5

Now give it for C[C@@H]1[C@H](O)[C@@H](C)/C=C/C=C/C=C/C=C/C=C/C=C/C=C/[C@H](O[C@@H]2O[C@H](C)[C@@H](O)[C@H](NC(=N)N)[C@@H]2O)C[C@@H]2O[C@](O)(C[C@@H](O)C[C@@H](O)[C@H](O)CC[C@@H](O)C[C@@H](O)CC(=O)O[C@H]1C)C[C@H](O)[C@H]2NC(=O)NCCC(N)=O [I-343] too.
0.25

Now give it for CNC(=O)N[C@H]1[C@@H]2C[C@@H](O[C@@H]3O[C@H](C)[C@@H](O)[C@H](N(CCCN)CCCN)[C@@H]3O)/C=C/C=C/C=C/C=C/C=C/C=C/C=C/[C@H](C)[C@@H](O)[C@@H](C)[C@H](C)OC(=O)C[C@H](O)C[C@H](O)CC[C@@H](O)[C@H](O)C[C@H](O)C[C@](O)(C[C@@H]1O)O2 [I-383] too.
0.25

Now give it for C[C@@H]1[C@H](O)[C@@H](C)/C=C/C=C/C=C/C=C/C=C/C=C/C=C/[C@H](O[C@@H]2O[C@H](C)[C@@H](O)[C@H](NC(=N)NO)[C@@H]2O)C[C@@H]2O[C@](O)(C[C@@H](O)C[C@@H](O)[C@H](O)CC[C@@H](O)C[C@@H](O)CC(=O)O[C@H]1C)C[C@H](O)[C@H]2NC(=O)NNC(=O)[C@H](O)CO [I-380] too.
0.5

###

Tested on: red blood cells (5% RBC suspension)
methodNotes: Test Example 2-1: in vitro hemolytic activity test (upper limit 50, 80, 100 or 200 μmol/L)
Assay type: cell-based
runConditions: hemolysis method 100 (upper concentration 100 μmol/L); 5% RBC suspension, 37° C., one hour; read-out: hemolysis IC50
Method: Nephrotoxic potentials of the compounds of the present invention except the compounds whose X is —N(R^F)—CO—X^1 and X^1 is the group represented by formula (III) and T is —N(R^a5)— were investigated by in vitro hemolytic activity test under the condition, in that, the upper limit was 50 μmol/L, 80 μmol/L, 100 μmol/L, or 200 μmol/L as the required concentration to 50% of hemolysis (IC50). […] Percent hemolysis was calculated by using the followed equation. […]
pIC50: −log10 of the molar value.
metricName: pIC50

The cases that follow already have their pIC50 on record.
C[C@@H]1[C@H](O)[C@@H](C)/C=C/C=C/C=C/C=C/C=C/C=C/C=C/[C@H](O[C@@H]2O[C@H](C)[C@@H](O)[C@H](N)[C@@H]2O)C[C@@H]2O[C@](O)(C[C@@H](O)C[C@@H](O)[C@H](O)CC[C@@H](O)C[C@@H](O)CC(=O)O[C@H]1C)C[C@H](O)[C@H]2NC(=O)NC(C)(CO)CO : < 4.00
C[C@@H]1[C@H](O)[C@@H](C)/C=C/C=C/C=C/C=C/C=C/C=C/C=C/[C@H](O[C@@H]2O[C@H](C)[C@@H](O)[C@H](NC(=O)CN(C)C)[C@@H]2O)C[C@@H]2O[C@](O)(C[C@@H](O)C[C@@H](O)[C@H](O)CC[C@@H](O)C[C@@H](O)CC(=O)O[C@H]1C)C[C@H](O)[C@H]2NC(=O)NCCN(C)C : < 4.30
CC1C=CC=CC=CC=CC=CC=CC=CC(OC2OC(C)C(O)C(N)C2O)CC2OC(O)(CC(O)CC(O)C(O)CCC(O)CC(O)CC(=O)OC(C)C(C)C1O)CC(O)C2NC(=O)NC1CCCC1O (centres unmarked) : < 4.00

What value of pIC50 on red blood cells (5% RBC suspension) does `C[C@@H]1[C@H](O)[C@@H](C)/C=C/C=C/C=C/C=C/C=C/C=C/C=C/[C@H](O[C@@H]2O[C@H](C)[C@@H](O)[C@H](N)[C@@H]2O)C[C@@H]2O[C@](O)(C[C@@H](O)C[C@@H](O)[C@H](O)CC[C@@H](O)C[C@@H](O)CC(=O)O[C@H]1C)C[C@H](O)[C@H]2NC(=O)N(C)C` have?
< 4.00

Now give it for `C[C@@H]1[C@H](O)[C@@H](C)/C=C/C=C/C=C/C=C/C=C/C=C/C=C/[C@H](O[C@@H]2O[C@H](C)[C@@H](O)[C@H](N)[C@@H]2O)C[C@@H]2O[C@](O)(C[C@@H](O)C[C@@H](O)[C@H](O)CC[C@@H](O)C[C@@H](O)CC(=O)O[C@H]1C)C[C@H](O)[C@H]2NC(=O)N(N)CCO` too.
< 4.00

The measurements presented in this section are drawn from patent US10696707B2.
